# Assayed System: ALK (Homo sapiens, UniProt Q9UM73)
# Construct: host or cells: baculovirus expression system
# Sequence (Q9UM73 19-1620): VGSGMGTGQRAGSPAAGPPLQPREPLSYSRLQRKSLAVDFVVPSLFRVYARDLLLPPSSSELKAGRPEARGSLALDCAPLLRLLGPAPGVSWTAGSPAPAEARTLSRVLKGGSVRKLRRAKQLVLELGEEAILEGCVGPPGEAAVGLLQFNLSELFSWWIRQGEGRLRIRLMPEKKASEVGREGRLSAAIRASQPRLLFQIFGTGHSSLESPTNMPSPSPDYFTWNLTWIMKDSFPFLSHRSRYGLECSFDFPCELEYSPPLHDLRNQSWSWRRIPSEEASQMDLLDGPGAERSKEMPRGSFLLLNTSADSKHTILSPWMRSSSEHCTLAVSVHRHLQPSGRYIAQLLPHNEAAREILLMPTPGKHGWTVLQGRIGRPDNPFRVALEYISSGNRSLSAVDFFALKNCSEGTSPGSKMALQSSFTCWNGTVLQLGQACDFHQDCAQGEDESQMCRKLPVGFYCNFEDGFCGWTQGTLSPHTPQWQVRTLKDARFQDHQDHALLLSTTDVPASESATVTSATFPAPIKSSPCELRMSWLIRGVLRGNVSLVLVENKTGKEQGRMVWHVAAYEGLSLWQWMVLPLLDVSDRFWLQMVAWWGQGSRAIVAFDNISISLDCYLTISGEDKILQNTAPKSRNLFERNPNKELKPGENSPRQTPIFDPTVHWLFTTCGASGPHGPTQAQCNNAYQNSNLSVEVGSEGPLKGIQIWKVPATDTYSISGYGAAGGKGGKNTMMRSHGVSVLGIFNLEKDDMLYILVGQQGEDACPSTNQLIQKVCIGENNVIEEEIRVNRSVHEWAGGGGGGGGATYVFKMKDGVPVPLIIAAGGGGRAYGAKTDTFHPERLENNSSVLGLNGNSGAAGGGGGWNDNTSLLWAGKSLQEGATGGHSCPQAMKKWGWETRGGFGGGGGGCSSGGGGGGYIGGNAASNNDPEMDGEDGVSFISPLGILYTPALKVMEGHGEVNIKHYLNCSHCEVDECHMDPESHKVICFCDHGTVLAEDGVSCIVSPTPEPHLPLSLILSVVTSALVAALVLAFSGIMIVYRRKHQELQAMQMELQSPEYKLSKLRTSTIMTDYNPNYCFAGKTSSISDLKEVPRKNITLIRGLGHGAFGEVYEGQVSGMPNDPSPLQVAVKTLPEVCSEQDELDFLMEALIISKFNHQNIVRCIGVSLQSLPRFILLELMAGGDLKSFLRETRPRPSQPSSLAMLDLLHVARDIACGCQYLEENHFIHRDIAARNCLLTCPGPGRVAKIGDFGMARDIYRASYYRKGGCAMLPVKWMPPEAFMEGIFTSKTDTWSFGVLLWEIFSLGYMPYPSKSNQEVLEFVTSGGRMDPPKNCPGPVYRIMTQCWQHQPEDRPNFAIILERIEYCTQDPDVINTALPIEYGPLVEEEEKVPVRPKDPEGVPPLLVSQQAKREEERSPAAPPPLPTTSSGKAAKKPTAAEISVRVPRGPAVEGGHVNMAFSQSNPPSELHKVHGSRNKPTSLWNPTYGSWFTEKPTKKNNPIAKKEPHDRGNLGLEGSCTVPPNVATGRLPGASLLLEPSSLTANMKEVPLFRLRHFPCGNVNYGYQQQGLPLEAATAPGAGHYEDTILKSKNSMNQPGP
# Procedure Summary: ALK Kinase Assay (ELISA/TRF, PLC-γ substrate)
# Format: biochemical
# Run Parameters: ALK kinase inhibition, 1 μM ATP; read-out: ALK Potency
Measured Attribute: IC50

Query block: Notebook entry, ALK (Homo sapiens, UniProt Q9UM73) assay: IC50 of COc1cc(C2CCN(C)CC2)ccc1Nc1ncc2ccc(-c3ccccc3OC)n2n1 = ?
Result block: < 100 nM

Query block: Given the entry COCCN1CCc2ccc(Nc3ncc4ccc(-c5cccc(CCC#N)c5)n4n3)cc2CC1 , what IC50 was observed with ALK (Homo sapiens, UniProt Q9UM73)?
Result block: < 100 nM

Query block: Param readout= IC50; system= ALK (Homo sapiens, UniProt Q9UM73); entry= O=S(=O)(c1cccc(-c2ccc3cnc(Nc4ccc(-c5cccnc5)cc4)nn23)c1)N1CCOCC1 ; returns value.
Result block: 1000 to 10000 nM

* * *

# Assayed System: ALK (Homo sapiens, UniProt Q9UM73)
# Construct: host or cells: baculovirus expression system
# Procedure Summary: ALK Kinase Assay (ELISA/TRF, PLC-γ substrate)
# Assay type: biochemical
# Run Parameters: ALK Kinase Inhibition; read-out: ALK Potency
pIC50: −log10 of the molar value.
Measured Attribute: pIC50

The cases that follow already have their pIC50 on record.
Compound	Assayed System	pIC50
CC(=O)Nc1cccc(Nc2ncc3ccc(-c4cnn(C)c4)n3n2)c1	ALK (Homo sapiens, UniProt Q9UM73)	5.00 to 6.00
COc1ccc(Nc2ncc3ccc(-c4ccccc4N(C)S(C)(=O)=O)n3n2)cc1N1CCOCC1	ALK (Homo sapiens, UniProt Q9UM73)	> 7.00
COc1cc(N2CCC(N3CCOCC3)CC2)ccc1Nc1ncc2ccc(-c3ccccc3NC(C)=O)n2n1	ALK (Homo sapiens, UniProt Q9UM73)	6.00 to 7.00
c1ccc(NCc2ccc3cnc(Nc4ccc(N5CCOCC5)cc4)nn23)cc1	ALK (Homo sapiens, UniProt Q9UM73)	5.00 to 6.00
COc1ccc(Cl)cc1-c1ccc2cnc(Nc3cccc(C(=O)N4CCOCC4)c3)nn12	ALK (Homo sapiens, UniProt Q9UM73)	6.00 to 7.00

Query block: Which measured pIC50 belongs to CS(=O)(=O)Nc1ccccc1-c1ccc2cnc(Nc3ccc(N4CCOCC4)cc3)nn12 , tested on ALK (Homo sapiens, UniProt Q9UM73)?
Result block: 5.00 to 6.00

Query block: Which pIC50 is reported with ALK (Homo sapiens, UniProt Q9UM73) for this entry: COc1ccc(Nc2ncc3ccc(-c4cccc(Cl)c4)n3n2)cc1 ?
Result block: < 5.00

Query block: Recorded pIC50 for CN1CCN(c2ccc(Nc3ncc4ccc(-c5ccc6c(c5)OCCO6)n4n3)cc2)CC1 with ALK (Homo sapiens, UniProt Q9UM73), please?
Result block: > 7.00

Query block: Short answer please: pIC50, ALK (Homo sapiens, UniProt Q9UM73), entry CNC(=O)c1cccc(Nc2ncc3ccc(-c4cccc(S(=O)(=O)NC(C)(C)C)c4)n3n2)c1
Result block: 5.00 to 6.00

* * *

# Assayed System: JAK2 (Homo sapiens, UniProt O60674)
# Construct: host or cells: baculovirus expression system
# Sequence (O60674 whole entry): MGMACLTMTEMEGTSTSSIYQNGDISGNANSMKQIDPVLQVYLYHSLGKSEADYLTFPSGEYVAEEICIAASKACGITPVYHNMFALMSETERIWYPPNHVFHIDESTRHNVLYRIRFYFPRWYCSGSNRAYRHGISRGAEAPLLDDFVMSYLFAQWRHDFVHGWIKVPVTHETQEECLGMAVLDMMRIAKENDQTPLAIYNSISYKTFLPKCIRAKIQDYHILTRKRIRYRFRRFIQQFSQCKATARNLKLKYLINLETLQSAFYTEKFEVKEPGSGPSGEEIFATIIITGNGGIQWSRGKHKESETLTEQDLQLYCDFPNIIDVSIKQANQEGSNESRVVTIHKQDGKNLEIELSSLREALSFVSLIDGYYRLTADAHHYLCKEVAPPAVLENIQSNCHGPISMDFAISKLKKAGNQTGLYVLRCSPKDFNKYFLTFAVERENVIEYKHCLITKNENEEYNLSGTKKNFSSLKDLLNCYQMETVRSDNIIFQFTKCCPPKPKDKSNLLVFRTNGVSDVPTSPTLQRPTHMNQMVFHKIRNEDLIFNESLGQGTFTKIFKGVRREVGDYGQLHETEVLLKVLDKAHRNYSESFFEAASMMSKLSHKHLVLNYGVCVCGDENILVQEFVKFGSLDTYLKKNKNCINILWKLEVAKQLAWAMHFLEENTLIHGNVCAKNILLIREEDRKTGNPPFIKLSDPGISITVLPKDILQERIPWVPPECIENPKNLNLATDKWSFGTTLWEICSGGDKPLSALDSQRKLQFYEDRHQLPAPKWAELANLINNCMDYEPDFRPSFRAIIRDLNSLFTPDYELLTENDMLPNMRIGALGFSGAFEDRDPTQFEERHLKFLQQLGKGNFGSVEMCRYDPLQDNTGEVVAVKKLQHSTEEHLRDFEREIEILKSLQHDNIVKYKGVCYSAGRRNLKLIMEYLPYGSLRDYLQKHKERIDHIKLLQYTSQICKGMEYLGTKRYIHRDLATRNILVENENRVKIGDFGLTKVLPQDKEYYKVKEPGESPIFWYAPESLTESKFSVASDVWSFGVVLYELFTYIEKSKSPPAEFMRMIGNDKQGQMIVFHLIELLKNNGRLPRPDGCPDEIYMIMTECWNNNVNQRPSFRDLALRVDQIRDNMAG
# Procedure Summary: Recombinant Human JAK2 Kinase Assay (TRF)
# Assay type: biochemical
# Run Parameters: JAK2 kinase inhibition, 0.2 μM ATP; read-out: JAK2 Potency
Listing: IC50 of selected compounds

Compound	Assayed System	IC50
COc1cc(C2CCNCC2)ccc1Nc1ncc2ccc(-c3ccccc3N(C)S(C)(=O)=O)n2n1 [Example 819]	JAK2 (Homo sapiens, UniProt O60674)	1000 to 10000 nM

Query block: Consider the compound shown here: CN1CCN(c2cccc(Nc3ncc4ccc(-c5cccc(S(=O)(=O)NC(C)(C)C)c5)n4n3)c2)CC1 [Example 883] What is its recorded IC50?
Result block: < 100 nM

Query block: IC50 for COc1cc(C2CCN(CCF)CC2)ccc1Nc1ncc2ccc(-c3ccccc3OC)n2n1 [Example 791] ?
Result block: 100 to 1000 nM

Query block: Give its IC50 value. Item: CC(C)(C)NS(=O)(=O)c1cccc(-c2ccc3cnc(Nc4ccc5cnn(CCN6CCOCC6)c5c4)nn23)c1 [Example 1324]
Result block: < 100 nM

* * *

# Assayed System: ALK (Homo sapiens)
# Construct: host or cells: baculovirus expression system
# Procedure Summary: ALK Kinase Assay (ELISA/TRF, PLC-γ substrate)
# Format: biochemical
# Run Parameters: ALK kinase inhibition, 1 μM ATP; read-out: ALK Potency
pIC50: −log10 of the molar value.
Measured Attribute: pIC50

Molecule	pIC50
COc1cc([C@H]2CC[C@H](N3CCOCC3)CC2)ccc1Nc1ncc2ccc(-c3ccccc3OC)n2n1	> 7.00
Brc1ccc(Nc2ncc3cc4ccccc4n3n2)cc1	< 5.00
CN(c1ccccc1-c1ccc2cnc(Nc3ccc4c(c3)C(C)(C)C(=O)N4)nn12)S(C)(=O)=O	> 7.00

Query block: Need pIC50, item CC(=O)Nc1cccc(Nc2ncc3ccc(-c4ccc[nH]4)n3n2)c1
Result block: 5.00 to 6.00

Query block: What does the data say about its pIC50? Entry: COc1cc(C2CCN(C[C@@H](C)O)CC2)ccc1Nc1ncc2ccc(-c3cc(Cl)ccc3OC)n2n1
Result block: > 7.00

Query block: I have this molecule here, N#CCCc1cccc(-c2ccc3cnc(Nc4ccc(N5CCOCC5)cc4)nn23)c1 , and I need its recorded pIC50.
Result block: 6.00 to 7.00

Query block: Query: pIC50; subject: COc1cc(N2CCC(N3CCOCC3)CC2)ccc1Nc1ncc2ccc(-c3cccc(CCC#N)c3)n2n1
Result block: > 7.00

Query block: So what's the measured pIC50 for this one? COc1cc2c(cc1Nc1ncc3ccc(-c4ccccc4N(C)S(C)(=O)=O)n3n1)CCC1(CCN(C)CC1)O2
Result block: > 7.00

Query block: Tell me the measured pIC50 of CS(=O)(=O)N1CC=C(c2ccc3cnc(Nc4ccc(N5CCOCC5)cc4)nn23)CC1 , please.
Result block: 5.00 to 6.00

Query block: Name the reported pIC50 value associated with the molecule Cn1cnc(-c2ccc3cnc(Nc4ccc(N5CCOCC5)cc4)nn23)c1
Result block: 5.00 to 6.00

Query block: Entry COc1cc2c(cc1Nc1ncc3ccc(-c4ccccc4OC)n3n1)CN(C(C)C)C2 : reported pIC50 = ?
Result block: > 7.00

Query block: Which pIC50 is listed for CCN1CCOC(c2ccc(Nc3ncc4ccc(-c5cccc(S(=O)(=O)NC(C)(C)C)c5)n4n3)cc2)C1 (stereo not shown) ?
Result block: 6.00 to 7.00

* * *

# Assayed System: ALK (Homo sapiens, UniProt Q9UM73)
# Construct: host or cells: baculovirus expression system
# Procedure Summary: ALK Kinase Assay (ELISA/TRF, PLC-γ substrate)
# Format: biochemical
# Run Parameters: ALK kinase inhibition, 1 μM ATP; read-out: ALK Potency
# Description: Briefly, each 96-well plate was coated with […] of 10 μg/mL substrate (phospholipase C-γ) in Tris-buffered saline (TBS). […] The reaction was initiated by adding enzyme (30 ng/ml ALK) and was allowed to proceed at 37° C. for 15 minutes. Detection of the phosphorylated product was performed by adding 100 μl/well of Eu—N1 labeled PT66 antibody (Perkin Elmer # AD0041). Data analysis was performed using ActivityBase (IDBS, Guilford, UK). […]
Measured Attribute: IC50

Use the examples below as a reference point.
Query Smiles	Data Value
N#CCCc1cccc(-c2ccc3cnc(Nc4ccc(N5CCC(N6CCOCC6)CC5)cc4)nn23)c1	< 100 nM
CN1CCN(c2cccc(Nc3ncc4ccc(-c5cccc(NCCS(C)(=O)=O)c5)n4n3)c2)CC1	100 to 1000 nM
CN1CCN(c2ccc(Nc3ncc4ccc(-c5cnc6ccccc6c5)n4n3)cc2)CC1	< 100 nM

Turning now to a further record.
Query block: GET /values?readout=IC50&item= COc1cc(N2CCC(N3CCCOCC3)CC2)ccc1Nc1ncc2ccc(-c3ccccc3OC)n2n1
Result block: < 100 nM

* * *

# Assayed System: ALK (Homo sapiens, UniProt Q9UM73)
# Construct: host or cells: baculovirus expression system
# Procedure Summary: ALK Kinase Assay (ELISA/TRF, PLC-γ substrate)
# Format: biochemical
# Run Parameters: ALK kinase inhibition, 1 μM ATP; read-out: ALK Potency
pIC50: −log10 of the molar value.
Measured Attribute: pIC50

Please review the entries below; each comes with its answer.
Compound	pIC50
CN1CCN(c2ccc(Nc3ncc4ccc(-c5cccnc5F)n4n3)cc2)CC1	6.00 to 7.00
CC(=O)N1CCCCc2ccc(Nc3ncc4ccc(-c5ccccc5N(C)S(C)(=O)=O)n4n3)cc21	5.00 to 6.00
CS(=O)(=O)c1cccc(-c2ccc3cnc(Nc4ccc(-c5cccnc5)cc4)nn23)c1	5.00 to 6.00
CC(C)(C)NS(=O)(=O)c1cccc(-c2ccc3cnc(Nc4ccc5c(cnn5CCN5CCOCC5)c4)nn23)c1	6.00 to 7.00
COc1cc(CN2CCOCC2)ccc1Nc1ncc2ccc(-c3ccccc3N(C)S(C)(=O)=O)n2n1	> 7.00

Query block: May I ask what pIC50 has been recorded for COc1ccc(-c2ccc3cnc(Nc4ccc5nc(C(F)(F)F)[nH]c5c4)nn23)cn1 ?
Result block: < 5.00

Query block: Find the recorded pIC50 belonging to C[C@H](O)CN1CCC(c2ccc(Nc3ncc4ccc(-c5cccc(N(C)S(C)(=O)=O)c5)n4n3)cc2)CC1 and report it.
Result block: 6.00 to 7.00

Cited source: patent US8471005B2
